system: PSA; assay: Prostate Surface Antigen (PSA) assay, PSA excreted into the media; format: cell-based, human; settings: Homo sapiens, 72 h, same plates as eGFP assay, media after 3 days; read-out: IC50 (PSA)
pIC50: −log10 of the molar value.
attribute measured: pIC50

>  <compound>
COc1cccc2c(-c3cc(C)c4ccccc4n3)c[nH]c12 [13 554]

>  <pIC50>
6.17

$$$$
>  <compound>
CCc1cccc2c(-c3ccc4ccccc4n3)c[nH]c12 [13 567]

>  <pIC50>
6.64

$$$$
>  <compound>
COC(=O)c1cccc2c(-c3ccc(Br)cc3)c[nH]c12 [13 736]

>  <pIC50>
6.17

$$$$

I = Cc1cccc2c(-c3ccc4cccnc4c3)c[nH]c12 [13 744]
II = Cc1ccc2[nH]cc(-c3ccc4ccccc4n3)c2c1 [13 577]
Input: Field: lower recorded pIC50 (choose I or II ) Refer to your chosen entry by its label in the reply.
Output: II

A = Cc1cccc2c(-c3ccc4ocnc4c3)c[nH]c12 [13 759]
B = Cc1cccc2cnn(-c3ccc4ccccc4n3)c12 [13 575]
C = O=[N+]([O-])c1cccc2c(-c3ccc4ccccc4c3)c[nH]c12 [13 702]
Input: Write the entries in order, lowest recorded pIC50 first. Your reply should list the labels following the order given in the request.
Output: B, A, C
(B: 5.87, A: 6.57, C: 6.85)

1 = COc1ccc2[nH]cc(C3Nc4ccccc4C3(C)C)c2c1 (stereo not shown) [13 536]
2 = c1ccc2nc(-c3c[nH]c4ccccc34)ccc2c1 [13 562]
3 = Brc1ccc2c(-c3ccc4ccccc4n3)c[nH]c2c1 [13 568]
Input: # ascending order, key=pIC50 I'd appreciate it if you listed the labels in the requested order.
Output: 1, 3, 2
(1: 5.60, 3: 5.81, 2: 6.85)

* * *

Biological target: androgen receptor (AR) (Homo sapiens, UniProt P10275, T878A)
Construct: stably transfected eGFP-expressing LNCaP human prostate cancer cells (LN-ARR2PB-eGFP) containing an androgen responsive probasin-derived promoter; endogenous in cells; host or cells: LNCaP (LN-ARR2PB-eGFP)
Sequence (P10275 whole entry T878A): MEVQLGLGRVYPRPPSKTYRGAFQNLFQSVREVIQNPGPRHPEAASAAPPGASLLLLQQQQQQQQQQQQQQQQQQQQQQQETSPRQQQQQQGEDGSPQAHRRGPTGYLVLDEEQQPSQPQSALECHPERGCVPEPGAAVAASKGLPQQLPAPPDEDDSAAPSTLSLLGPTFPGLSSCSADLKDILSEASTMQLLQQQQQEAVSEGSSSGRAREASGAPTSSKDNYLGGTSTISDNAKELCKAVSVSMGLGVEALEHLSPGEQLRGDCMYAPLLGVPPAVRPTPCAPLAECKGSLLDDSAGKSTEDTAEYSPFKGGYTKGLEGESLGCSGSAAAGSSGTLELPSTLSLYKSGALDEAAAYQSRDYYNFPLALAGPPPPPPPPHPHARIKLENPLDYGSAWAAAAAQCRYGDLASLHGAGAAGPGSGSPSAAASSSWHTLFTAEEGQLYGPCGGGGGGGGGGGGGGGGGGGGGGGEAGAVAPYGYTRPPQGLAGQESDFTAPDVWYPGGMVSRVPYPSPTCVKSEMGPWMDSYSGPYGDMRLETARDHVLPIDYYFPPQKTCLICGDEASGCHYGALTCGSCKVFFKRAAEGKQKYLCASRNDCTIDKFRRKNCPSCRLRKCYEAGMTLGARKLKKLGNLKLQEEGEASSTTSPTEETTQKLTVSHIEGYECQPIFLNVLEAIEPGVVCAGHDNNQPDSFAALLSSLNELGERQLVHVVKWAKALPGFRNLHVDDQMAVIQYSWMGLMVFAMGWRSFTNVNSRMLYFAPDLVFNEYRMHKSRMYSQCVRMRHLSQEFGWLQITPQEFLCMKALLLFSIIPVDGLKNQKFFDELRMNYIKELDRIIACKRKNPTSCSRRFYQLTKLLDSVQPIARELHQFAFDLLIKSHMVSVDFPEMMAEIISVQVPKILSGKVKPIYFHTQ
Experiment: eGFP cellular AR transcription assay
Assay type: cell-based
Conditions: LN-ARR2PBeGFP LNCaP cells, 0.1 nM R1881, 3 days incubation; read-out: eGFP IC50
Procedure: After 5 days, the cells were plated into a 96-well plate (35,000 cells/well) with 0.1 nM of the synthetic androgen R1881 and increasing concentrations (0-100 μM) of compound. After 5 days, the cells were plated into a 96-well plate (35,000 cells/well) with 0.1 nM R1881 and increasing concentrations (0-100 μM) of compound. In this assay, the expression of eGFP is under the control of an androgen responsive probasin-derived promoter and can quantify AR transcriptional activity.
attribute measured: IC50 (µM)

Sample records with IC50:
>  <molecule>
c1ccc2[nH]c(-c3n[nH]c4ccccc34)nc2c1 [Compound 13036]

>  <units of measure>
µM

>  <IC50>
1.6

$$$$
>  <molecule>
CC1(C)c2ccccc2N(Cc2ccc(O)cc2)C1c1c[nH]c2ccccc12 (stereo not shown) [Compound 13525]

>  <units of measure>
µM

>  <IC50>
3.1

$$$$

P = CC1(C)c2ccccc2NC1c1c[nH]c2cc(OCc3ccccc3)ccc12 (stereo not shown) [Compound 13544]
Q = Cc1ccc2[nH]cc(-c3ccc4ccccc4n3)c2c1 [Compound 13577]
Input: Sorting by IC50 in descending order, would P or Q appear first? Your answer should be the label attached to the chosen record.
Output: P

* * *

target: androgen receptor (AR) (Homo sapiens, UniProt P10275, T878A); construct: stably transfected eGFP-expressing LNCaP human prostate cancer cells (LN-ARR2PB-eGFP) containing an androgen responsive probasin-derived promoter; endogenous in cells; host or cells: LNCaP (LN-ARR2PB-eGFP); experiment: eGFP cellular AR transcription assay; assay type: cell-based; conditions: LN-ARR2PBeGFP LNCaP cells, 0.1 nM R1881, 3 days incubation; read-out: eGFP IC50
pIC50: −log10 of the molar value.
attribute measured: pIC50

P = Brc1ccc2[nH]cc(-c3ccc4ccccc4n3)c2c1
Q = Cc1cccc2c(-c3ccc4c(-c5cncs5)cccc4n3)c[nH]c12
R = Clc1ccccc1/N=N/c1c[nH]c2ccccc12
Input: Put these in order: smallest pIC50 first, largest last. Answer by writing out the labels in the requested order.
Output: P, R, Q
(P: 5.59, R: 6.30, Q: 6.96)

* * *

tested on: PSA; assay: Prostate Surface Antigen (PSA) assay, PSA excreted into the media; assay type: cell-based, human; settings: Homo sapiens, 72 h, same plates as eGFP assay, media after 3 days; read-out: IC50 (PSA)
attribute measured: IC50 (nM)

Sample answers from the record:
>  <compound>
FC(F)(F)c1ccccc1-c1c[nH]c2ccccc12

>  <test system>
PSA

>  <units of measure>
nM

>  <IC50>
950

$$$$
>  <compound>
Brc1cccc2c(-c3cnc4ccccc4c3)c[nH]c12

>  <test system>
PSA

>  <units of measure>
nM

>  <IC50>
290

$$$$
>  <compound>
Brc1ccc2[nH]cc(-c3ccc4ccccc4n3)c2c1

>  <test system>
PSA

>  <units of measure>
nM

>  <IC50>
1910

$$$$

I = Cc1ccc2[nH]cc(C3Nc4ccccc4C3(C)C)c2c1 (centres unmarked)
II = Brc1ccc(-c2c[nH]c3cccnc23)cc1
Input: Identify the item whose IC50 is the smaller number: I or II # respond with the chosen item's label
Output: II
